Readings of IC50 for the listed compounds
Molecular target: NK1 receptor (Homo sapiens)
Construct: Measurement of NK1 Receptor Mediated Intracellular [Ca^2+]; Mobilization in U251 MG Cells Using FLIPR; endogenous in cells; host or cells: U251 MG cells
Assay: NK1 receptor mediated intracellular [Ca2+] mobilization in U251 MG cells using FLIPR
Format: cell-based
Conditions: antagonist potency against Substance P (EC80), normalized to 100 nM Aprepitant, read-out: U251MG (FLIPR pIC50) (converted)
// return numeric value only (unit: nM, not printed)

Consider the worked cases shown below.
{"columns": ["Compound", "Readout Unit", "IC50"],
 "data": [
  ["Cc1ccccc1C1C2CC(CO)C(=O)N2CCN1C(=O)N(C)[C@H](C)c1cc(C(F)(F)F)cc(C(F)(F)F)c1 (single isomer, unassigned) [Compound 58]", "nM", 11.5],
  ["Cc1ccccc1[C@H]1[C@@H]2CC(CCO)(CCO)C(=O)N2CCN1C(=O)N(C)[C@@H](C)c1cc(F)cc(C(F)(F)F)c1", "nM", 0.0158],
  ["Cc1ccccc1[C@H]1[C@@H]2CC(CCO)(CCO)C(=O)N2CCN1C(=O)N(C)[C@H](C)c1cc(Cl)cc(C(F)(F)F)c1", "nM", 0.126],
  ["Cc1ccccc1C1C2CC(CN3CCOCC3)C(=O)N2CCN1C(=O)N(C)Cc1cc(C(F)(F)F)cc(C(F)(F)F)c1 (single isomer, unassigned) [Compound 40]", "nM", 7.76],
  ["Cc1ccccc1[C@H]1[C@@H]2CC(CCO)(CCO)C(=O)N2CCN1C(=O)N(C)[C@H](C)c1cccc(C(F)(F)F)c1", "nM", 0.0631],
  ["Cc1ccccc1C1C2CCC(=O)N2CCN1C(=O)N(C)Cc1cc(F)cc(C(F)(F)F)c1 (single isomer, unassigned) [Compound 3]", "nM", 1.38],
  ["Cc1ccccc1C1C2CC(CO)C(=O)N2CCN1C(=O)N(C)[C@H](C)c1cc(C(F)(F)F)cc(C(F)(F)F)c1 (single isomer, unassigned) [Compound 55]", "nM", 0.151],
  ["Cc1ccccc1[C@H]1[C@@H]2CC(CCO)(CCO)C(=O)N2CCN1C(=O)N(C)[C@H](CO)c1cccc(C(F)(F)F)c1", "nM", 0.0794]
]}

Query string: I have this compound here, Cc1ccccc1[C@H]1[C@H]2CCC(=O)N2CCN1C(=O)N(C)[C@H](C)c1cc(C(F)(F)F)cc(C(F)(F)F)c1 (single isomer, unassigned) , and I need its recorded IC50.
Result string: 0.0316

Query string: I have this compound here, Cc1ccccc1C1C2CC(CN3CCOCC3)C(=O)N2CCN1C(=O)N(C)[C@H](C)c1cc(C(F)(F)F)cc(C(F)(F)F)c1 (single isomer, unassigned) [Compound 72] , and I need its recorded IC50.
Result string: 8.13

Query string: I have this compound here, Cc1cc(C)cc(CN(C)C(=O)N2CCN3C(=O)CCC3C2c2ccccc2C)c1 (single isomer, unassigned) [Compound 1] , and I need its recorded IC50.
Result string: 6.46

Query string: I have this compound here, `Cc1ccccc1[C@H]1[C@@H]2CCC(=O)N2CCN1C(=O)N(C)[C@H](C)c1cc(C(C)C)cc(C(F)(F)F)c1` , and I need its recorded IC50.
Result string: 0.0316

Query string: I have this compound here, Cc1ccccc1C1C2CC(CN3CCOCC3)C(=O)N2CCN1C(=O)N(C)Cc1cc(C(F)(F)F)cc(C(F)(F)F)c1 (single isomer, unassigned) [Compound 29] , and I need its recorded IC50.
Result string: 0.398

Query string: I have this compound here, Cc1ccccc1C1C2CC(CO)CN2CCN1C(=O)N(C)Cc1cc(C(F)(F)F)cc(C(F)(F)F)c1 (single isomer, unassigned) [Compound 52] , and I need its recorded IC50.
Result string: 0.513

Query string: I have this compound here, C=C1CC2C(c3ccccc3C)N(C(=O)N(C)Cc3cc(C(F)(F)F)cc(C(F)(F)F)c3)CCN2C1=O (single isomer, unassigned) , and I need its recorded IC50.
Result string: 0.437

Query string: I have this compound here, `Cc1cc([C@@H](C)N(C)C(=O)N2CCN3C(=O)C(CCO)(CCO)C[C@H]3[C@@H]2c2ccccc2C)cc(C(F)(F)F)c1` , and I need its recorded IC50.
Result string: 0.0794

Query string: I have this compound here, Cc1ccccc1C1C2CC(CCO)CN2CCN1C(=O)N(C)C(CCO)c1cc(C(F)(F)F)cc(C(F)(F)F)c1 (stereo not drawn) , and I need its recorded IC50.
Result string: 0.724

====

Readings of Human in vitro Clint (mL/min/g liver) for the listed compounds
Experiment: Hepatic intrinsic clearance following incubation in human liver microsomes
Format: in vitro ADME
Conditions: NADPH regenerating system, 0-30 min, 37 °C
// return numeric value only (unit: mL/min/g liver, not printed)

Consider the worked cases shown below.
{"columns": ["Compound", "Obs Value"],
 "data": [
  ["Cc1ccccc1C1C2CC(CCO)(CCO)C(=O)N2CCN1C(=O)N(C)Cc1cc(C(F)(F)F)cc(C(F)(F)F)c1 (single isomer, unassigned) [Compound 44]", 2.6],
  ["CCC(c1cc(C(F)(F)F)cc(C(F)(F)F)c1)N(C)C(=O)N1CCN2C(=O)C(CCO)(CCO)C[C@H]2[C@@H]1c1ccccc1C (some centres unmarked)", 7.8],
  ["COc1cc([C@@H](CO)N(C)C(=O)N2CCN3C(=O)C(CCO)(CCO)C[C@H]3[C@@H]2c2ccccc2C)cc(C(F)(F)F)c1", 2.1],
  ["Cc1ccccc1C1C2CC3(CCN(C)CC3)C(=O)N2CCN1C(=O)N(C)Cc1cc(C(F)(F)F)cc(C(F)(F)F)c1 (single isomer, unassigned) [Compound 47]", 0.4],
  ["Cc1ccccc1[C@H]1[C@@H]2CC(CCO)(CCO)C(=O)N2CCN1C(=O)N(C)[C@@H](C)c1cc(Cl)cc(C(F)(F)F)c1", 7.6]
]}

Query string: I have this compound here, Cc1ccccc1C1C2CC(CCO)(CCO)CN2CCN1C(=O)N(C)[C@H](C)c1cc(C(F)(F)F)cc(C(F)(F)F)c1 (single isomer, unassigned) , and I need its recorded Human in vitro Clint (mL/min/g liver).
Result string: 6.1

Query string: I have this compound here, Cc1ccccc1C1C2CCC(=O)N2CCN1C(=O)N(C)Cc1cc(C(F)(F)F)cc(C(F)(F)F)c1 (single isomer, unassigned) , and I need its recorded Human in vitro Clint (mL/min/g liver).
Result string: 2.8

Query string: I have this compound here, `Cc1ccccc1[C@H]1[C@@H]2CC(CCO)(CCO)C(=O)N2CCN1C(=O)N(C)[C@H](C)c1cc(C(C)C)cc(C(F)(F)F)c1` , and I need its recorded Human in vitro Clint (mL/min/g liver).
Result string: 56

====

Target: NK1 receptor (Homo sapiens, UniProt P25103)
Construct: Measurement of NK1 Receptor Mediated Intracellular [Ca^2+]; Mobilization in U251 MG Cells Using FLIPR; endogenous in cells; host or cells: U251 MG cells
Sequence (P25103 whole entry): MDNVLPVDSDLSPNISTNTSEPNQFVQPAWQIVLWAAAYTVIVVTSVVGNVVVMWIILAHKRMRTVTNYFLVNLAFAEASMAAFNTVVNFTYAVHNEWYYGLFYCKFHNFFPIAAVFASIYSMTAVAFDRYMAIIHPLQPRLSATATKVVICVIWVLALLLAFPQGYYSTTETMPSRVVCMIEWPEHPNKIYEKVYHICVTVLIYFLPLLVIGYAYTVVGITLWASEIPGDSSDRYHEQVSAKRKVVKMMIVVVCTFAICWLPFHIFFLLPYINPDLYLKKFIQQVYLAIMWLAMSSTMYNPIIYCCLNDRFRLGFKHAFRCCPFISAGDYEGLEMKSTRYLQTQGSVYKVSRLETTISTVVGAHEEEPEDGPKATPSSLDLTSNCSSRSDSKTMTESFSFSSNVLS
Assay: NK1 receptor mediated intracellular [Ca2+] mobilization in U251 MG cells using FLIPR
Type: cell-based
Conditions: antagonist potency against Substance P (EC80), normalized to 100 nM Aprepitant, read-out: U251MG (FLIPR pIC50) (converted)
Cut-off 0.1 nM on IC50: below means fulfilled, at or above means not fulfilled.

Example results:
{"columns": ["Compound", "Class"],
 "data": [
  ["Cc1ccccc1C1C2CC(CCO)(CCO)C(=O)N2CCN1C(=O)N(C)Cc1cc(C(F)(F)F)cc(C(F)(F)F)c1 (racemic) [Compound 42]", "fulfilled"],
  ["Cc1cc([C@@H](C)N(C)C(=O)N2CCN3C(=O)C(CO)C[C@H]3[C@@H]2c2ccccc2C)cc(C(F)(F)F)c1 (stereo partly drawn) [Compound 102]", "not fulfilled"],
  ["Cc1ccccc1C1C2CC(CCO)C(=O)N2CCN1C(=O)N(C)C(CCO)c1cc(C(F)(F)F)cc(C(F)(F)F)c1 (single isomer, unassigned) [Compound 35]", "not fulfilled"],
  ["Cc1ccccc1C1C2CC(CN3CCOCC3)C(=O)N2CCN1C(=O)N(C)Cc1cc(C(F)(F)F)cc(C(F)(F)F)c1 (single isomer, unassigned) [Compound 51]", "not fulfilled"]
]}

Query string: Decide: IC50 of Cc1ccccc1[C@H]1[C@@H]2CC(CCO)(CCO)C(=O)N2CCN1C(=O)N(C)C(CCO)c1cc(C(F)(F)F)cc(C(F)(F)F)c1 (single isomer, unassigned) [Compound 82] strictly below 0.1 nM?
Result string: not fulfilled

====

Assay: Hepatic intrinsic clearance following incubation in human liver microsomes
Type: in vitro ADME
Details: NADPH regenerating system, 0-30 min, 37 °C
Where a name gives a salt, the structure may show the parent alone.
Readings of Human in vitro Clint (mL/min/g liver) for the listed compounds
// return numeric value only (unit: mL/min/g liver, not printed)

Consider the worked cases shown below.
{"columns": ["Compound", "Readout Unit", "Human in vitro Clint (mL/min/g liver)"],
 "data": [
  ["CCc1cc([C@@H](C)N(C)C(=O)N2CCN3C(=O)CC[C@H]3[C@@H]2c2ccccc2C)cc(C(F)(F)F)c1 [Compound 109]", "mL/min/g liver", 13],
  ["Cc1ccccc1[C@H]1[C@@H]2CC3(CCNCC3)C(=O)N2CCN1C(=O)N(C)[C@H](C)c1cc(C(F)(F)F)cc(C(F)(F)F)c1 [Compound 106, formic acid salt]", "mL/min/g liver", 0.19],
  ["Cc1cc([C@@H](C)N(C)C(=O)N2CCN3C(=O)CC[C@H]3[C@@H]2c2ccccc2C)cc(C(F)(F)F)c1 [Compound 107]", "mL/min/g liver", 9.2],
  ["Cc1ccccc1[C@H]1[C@@H]2CC(CCO)(CCO)C(=O)N2CCN1C(=O)N(C)[C@H](CO)c1cc(F)cc(C(F)(F)F)c1 [Compound 94]", "mL/min/g liver", 3.4],
  ["Cc1ccccc1C1C2CC(CO)C(=O)N2CCN1C(=O)N(C)Cc1cc(C(F)(F)F)cc(C(F)(F)F)c1 (single isomer, unassigned) [Compound 22]", "mL/min/g liver", 0.8],
  ["Cc1ccccc1C1C2CC(CN3CCOCC3)C(=O)N2CCN1C(=O)N(C)Cc1cc(C(F)(F)F)cc(C(F)(F)F)c1 (single isomer, unassigned) [Compound 38]", "mL/min/g liver", 3.3],
  ["Cc1ccccc1C1C2CC(CN3CCOCC3)C(=O)N2CCN1C(=O)N(C)Cc1cc(C(F)(F)F)cc(C(F)(F)F)c1 (single isomer, unassigned) [Compound 41]", "mL/min/g liver", 2.9],
  ["Cc1ccccc1C1C2CC(CO)CN2CCN1C(=O)N(C)Cc1cc(C(F)(F)F)cc(C(F)(F)F)c1 (single isomer, unassigned) [Compound 52]", "mL/min/g liver", 3.1]
]}

From here, focus on the item given below.
Query string: I have this compound here, Cc1ccccc1C1C2CC(CCO)(CCO)C(=O)N2CCN1C(=O)N(C)[C@H](C)c1cc(C(F)(F)F)cc(C(F)(F)F)c1 (single isomer, unassigned) [Compound 54] , and I need its recorded Human in vitro Clint (mL/min/g liver).
Result string: 9.5
